biological target: SHP2-C SH2; test: SH2 binding enrichment of the phosphorylated peptide, bacterial display (enrichment ratio); higher = better substrate or ligand; peptides without Tyr show the background;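 also: peptide library displayed on the E. coli surface as eCPX fusions, selected cells deep-sequenced, score is each peptide's frequency after selection divided by its frequency in the input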
recorded-metric: SH2 binding enrichment
Returns: the value as a bare number; no unit string appended.

*Q* What SH2 binding enrichment appears in the records for this sequence with SHP2-C SH2? VAFVYYKSIGP [ADGRL4_Y302]
*A* 0.75

*Q* What SH2 binding enrichment appears in the records for this sequence with SHP2-C SH2? SYKNKYGMVAQ [APOB_Y276]
*A* 0.786

*Q* What SH2 binding enrichment appears in the records for this sequence with SHP2-C SH2? KGYRGYSYDDI [TMEM230_Y110]
*A* 0.652

*Q* What SH2 binding enrichment appears in the records for this sequence with SHP2-C SH2? PVADPYDQSFE [MAPK14_Y323]
*A* 0.797

*Q* What SH2 binding enrichment appears in the records for this sequence with SHP2-C SH2? SHGKRYRVPSD [HHIPL2_Y395]
*A* 0.592

*Q* What SH2 binding enrichment appears in the records for this sequence with SHP2-C SH2? PEADKYRLPYA [FGG_Y300_T303P]
*A* 0.612

*Q* What SH2 binding enrichment appears in the records for this sequence with SHP2-C SH2? RHPREYQDLLN [DES_Y388_L385P]
*A* 0.906

*Q* What SH2 binding enrichment appears in the records for this sequence with SHP2-C SH2? AEQEEYSAMRD [NRAS_Y64_G60E]
*A* 0.785

*Q* What SH2 binding enrichment appears in the records for this sequence with SHP2-C SH2? FSPPYYHRNCM [HGD_Y334_R330S]
*A* 0.778

*Q* What SH2 binding enrichment appears in the records for this sequence with SHP2-C SH2? SLIDMYSKVLD [OPA1_Y268_E270K]
*A* 0.737

*Q* What SH2 binding enrichment appears in the records for this sequence with SHP2-C SH2? DFSLKYPTDIP [APC_Y1183_A1184P_YF]
*A* 0.618

*Q* What SH2 binding enrichment appears in the records for this sequence with SHP2-C SH2? LARDMHDKEFF [MET_Y1230_Y1230H_YF]
*A* 0.668

*Q* What SH2 binding enrichment appears in the records for this sequence with SHP2-C SH2? LAIELYVVVCK [RHO_Y136_R135L]
*A* 0.67

*Q* What SH2 binding enrichment appears in the records for this sequence with SHP2-C SH2? ALEHKYWALGQ [MAP1A_Y1555_Q1553H]
*A* 0.814

*Q* What SH2 binding enrichment appears in the records for this sequence with SHP2-C SH2? ETLLYYGCRRS [POR_Y564]
*A* 0.767

*Q* What SH2 binding enrichment appears in the records for this sequence with SHP2-C SH2? NVQIVYKPVDL [MAPT_Y627_S622N]
*A* 0.738

###

Please provide measured SH2 binding enrichment for the entries that follow.
target: c-Src SH2; assay: SH2 binding enrichment of the phosphorylated peptide, bacterial display (enrichment ratio); higher = better substrate or ligand; peptides without Tyr show the background

*Q* Suppose we examine the sequence RGRSTYYWPRP [GAGE12J_Y9] ; what SH2 binding enrichment value has been reported?
*A* 0.501

*Q* Suppose we examine the sequence LGPSDYFGEIA [PRKAR1A_Y323] ; what SH2 binding enrichment value has been reported?
*A* 0.51

*Q* Suppose we examine the sequence LRSRVYEVPVE [SLC26A3_Y756_N753S] ; what SH2 binding enrichment value has been reported?
*A* 3.83

*Q* Suppose we examine the sequence TEQDPYNNIVH [MMUT_Y364_R369H] ; what SH2 binding enrichment value has been reported?
*A* 2.11

*Q* Suppose we examine the sequence EYQKKYSDADI [CKAP5_Y1860_K1857Q] ; what SH2 binding enrichment value has been reported?
*A* 0.473
